- testDescription: Chromatographic hydrophobicity index (CHI), C18
- statedConditions: pH 10.5
Where no end group is shown, it is not given here.
readoutLabel: chromatographic logD

| substance | endpointResult |
| --- | --- |
| VRLIVAVRIWRR-NH2 [IDR, IDR-1018] | 4.43 |
| FVQWFSKFLGRIL-NH2 [TL, temporin L] | 4.95 |

----------
Reported chromatographic logD by item:
- testDescription: physchem
- statedConditions: pH 2.6
Where no end group is shown, it is not given here.

| substance | chromatographic logD |
| --- | --- |
| FVQWFSKFLGRIL-NH2 [TL, temporin L] | 0.65 |
| VRLIVAVRIWRR-NH2 [IDR, IDR-1018] | -0.53 |
